The reported measurements were obtained from patent US20210380703A1.

# Lookup of reported optical density keyed by entry
# SYSTEM: human Fc (human)
# EXPERIMENTAL_PROTOCOL: ELISA, negative control
Report as a plain number; the unit OD is understood.

BINDER	UNIT_ABBREV	optical density
369_G10 (antibody, V domains shown) VH: EVQLLESGGGLVQPGGSLRLSCAASGFTFSSYGMHWVRQAPGKGLEWVASINYNGGYTSYADSVKGRFTISRDNSKNTLYLQMNSLRAEDTAVYYCARAANWHDTALDYWGQGTLVTVSS VL: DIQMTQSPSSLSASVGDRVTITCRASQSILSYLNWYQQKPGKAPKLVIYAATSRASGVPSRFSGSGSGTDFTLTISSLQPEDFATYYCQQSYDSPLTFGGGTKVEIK	OD	0.423

Proceeding to the next binder to report its optical density.
[Q] Write down optical density measured for item 374_C12 (antibody, V domains shown) VH: EVQLLESGGGLVQPGGSLRLSCAASGFTFSSYSMNWVRQAPGKGLEWVAGINYNGGYKSYADSVKGRFTISRDNSKNTLYLQMNSLRAEDTAVYYCARGANWHDTALDYWGQGTLVTVSS VL: DIQMTQSPSSLSASVGDRVTITCRASQSILTYLNWYQQKPGKAPKLVIYAATSRASGVPSRFSGSGSGTDFTLTISSLQPEDFATYYCQQSDNSPLTFGGGTKVEIK
[A] 0.308
